test system: Staphylococcus aureus; assay: Antibacterial agar diffusion assay (Example 2); assay type: cell-based
Measured Quantity: antibacterial activity, growth of Staphylococcus aureus

# Compound, Result
rows = [
    ("CC(=O)c1cccc(N[C@H]2[C@H](N)[C@@](NC(=O)N(C)C)([C@H](C)O)[C@@](C)(O)[C@@]2(O)CO)c1", "inhibited the growth"),
    ("CC(=O)c1cccc(N[C@H]2[C@H](N)[C@@](NC(=O)N(C)C)([C@H](C)O)[C@@](C)(O)[C@@]2(O)COC(=O)c2c(C)cccc2O)c1", "inhibited the growth"),
]

###

Listed here: items and their measured pIC50.
test system: chloroquine-sensitive clone D6 of P. falciparum; experiment: Antimalarial activity assay, SYBR Green I fluorescence-based method; format: cell-based, Plasmodium falciparum; conditions: Plasmodium falciparum, D6, 72 h, P. falciparum D6, 72 hours; read-out: Antimalarial IC50 (D6)
pIC50: −log10 of the molar value.

# Compound, Target Or Test System, Measured Quantity, Result
data = [
    ("CC(=O)c1cccc(N[C@H]2[C@H](N)[C@](C)(NC(=O)N(C)C)[C@@](C)(O)[C@@]2(O)COC(=O)c2c(C)cccc2O)c1 [TM-026, 7-demethyl-7-deoxypactamycin]", "chloroquine-sensitive clone D6 of P. falciparum", "pIC50", "7.52 to 7.60"),
    ("CC(=O)c1cccc(N[C@H]2[C@H](N)[C@](C)(NC(=O)N(C)C)[C@@](C)(O)[C@@]2(O)CO)c1 [TM-025, de-6MSA-7-demethyl-7-deoxypactamycin]", "chloroquine-sensitive clone D6 of P. falciparum", "pIC50", "7.52 to 7.60"),
]

Item CC(=O)c1cccc(N[C@H]2[C@H](N)[C@@](NC(=O)N(C)C)([C@H](C)O)[C@@](C)(O)[C@@]2(O)COC(=O)c2c(C)cccc2O)c1 [pactamycin] ; assay system chloroquine-sensitive clone D6 of P. falciparum; pIC50 reported as ~7.62

// data source = patent US20130231377A1
